Parameter IC50: see the listing below.
- System: Glucocorticoid receptor (Homo sapiens, UniProt P04150)
- Sequence (P04150 whole entry): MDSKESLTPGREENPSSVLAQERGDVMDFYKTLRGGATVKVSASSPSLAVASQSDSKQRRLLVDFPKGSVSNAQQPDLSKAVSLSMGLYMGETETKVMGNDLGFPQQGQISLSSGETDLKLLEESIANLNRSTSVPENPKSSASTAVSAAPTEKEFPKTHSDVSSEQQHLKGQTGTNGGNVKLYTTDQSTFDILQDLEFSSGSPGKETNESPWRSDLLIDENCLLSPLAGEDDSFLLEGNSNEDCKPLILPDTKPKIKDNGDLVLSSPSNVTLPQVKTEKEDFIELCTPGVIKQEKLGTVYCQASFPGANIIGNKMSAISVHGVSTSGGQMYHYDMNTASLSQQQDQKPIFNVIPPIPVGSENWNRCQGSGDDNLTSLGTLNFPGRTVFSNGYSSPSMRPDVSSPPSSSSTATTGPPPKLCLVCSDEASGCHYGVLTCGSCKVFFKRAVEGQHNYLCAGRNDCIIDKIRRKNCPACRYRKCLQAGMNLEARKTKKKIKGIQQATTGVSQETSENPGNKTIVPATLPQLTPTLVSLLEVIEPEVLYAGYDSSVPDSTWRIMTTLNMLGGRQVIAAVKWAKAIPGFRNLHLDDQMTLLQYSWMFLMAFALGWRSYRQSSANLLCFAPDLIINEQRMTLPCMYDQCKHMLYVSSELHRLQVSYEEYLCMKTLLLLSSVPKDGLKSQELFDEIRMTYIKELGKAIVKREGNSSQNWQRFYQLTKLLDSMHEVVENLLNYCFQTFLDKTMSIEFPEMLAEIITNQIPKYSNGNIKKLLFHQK

>  <Compound>
CCCC1(CC(O)(C(=O)Nc2ccc3c(=O)onc(C)c3c2)C(F)(F)F)CCCc2ccccc21 (centres undefined)

>  <System>
Glucocorticoid receptor (Homo sapiens, UniProt P04150)

>  <Recorded result>
0.00468 µM

$$$$
>  <Compound>
Cc1noc(=O)c2ccc(NC(=O)C(O)(CC3(C(C)C)CCCc4ccccc43)C(F)(F)F)cc12 (centres undefined)

>  <System>
Glucocorticoid receptor (Homo sapiens, UniProt P04150)

>  <Recorded result>
0.00295 µM

$$$$
>  <Compound>
Cc1noc(=O)c2ccc(NC(=O)C(O)(CC3CCCc4c(Cl)cccc43)C(F)(F)F)cc12 (stereo in doubt; 20b)

>  <System>
Glucocorticoid receptor (Homo sapiens, UniProt P04150)

>  <Recorded result>
> 1 µM

$$$$
>  <Compound>
Cc1noc(=O)c2ccc(NC(=O)C(O)(CC3(C)CCCc4ccccc43)C(F)(F)F)cc12 (stereo in doubt; 35b)

>  <System>
Glucocorticoid receptor (Homo sapiens, UniProt P04150)

>  <Recorded result>
1.26 µM

$$$$
>  <Compound>
Cc1noc(=O)c2ccc(NC(=O)C(O)(CC3CCCc4c(C#N)cccc43)C(F)(F)F)cc12 (centres undefined)

>  <System>
Glucocorticoid receptor (Homo sapiens, UniProt P04150)

>  <Recorded result>
> 1 µM

$$$$
>  <Compound>
Cc1noc(=O)c2ccc(NC(=O)C(O)(CC3(C4CC4)CCCc4ccccc43)C(F)(F)F)cc12 (centres undefined)

>  <System>
Glucocorticoid receptor (Homo sapiens, UniProt P04150)

>  <Recorded result>
0.00955 µM

$$$$
>  <Compound>
Cc1noc(=O)c2ccc(NC(=O)C(O)(CC3(c4ccccc4)CCCc4ccccc43)C(F)(F)F)cc12 (centres undefined)

>  <System>
Glucocorticoid receptor (Homo sapiens, UniProt P04150)

>  <Recorded result>
> 10 µM

$$$$
>  <Compound>
Cc1noc(=O)c2ccc(NC(=O)C(O)(CC3CCCc4cccc(F)c43)C(F)(F)F)cc12 (centres undefined)

>  <System>
Glucocorticoid receptor (Homo sapiens, UniProt P04150)

>  <Recorded result>
> 1 µM

$$$$
>  <Compound>
Cc1noc(=O)c2ccc(NC(=O)C(O)(CC3CCCc4ccc([N+](=O)[O-])cc43)C(F)(F)F)cc12 (centres undefined)

>  <System>
Glucocorticoid receptor (Homo sapiens, UniProt P04150)

>  <Recorded result>
> 1 µM

$$$$
>  <Compound>
Cc1cccc2c1CCCC2CC(O)(C(=O)Nc1ccc2c(=O)onc(C)c2c1)C(F)(F)F (stereo in doubt; 19b)

>  <System>
Glucocorticoid receptor (Homo sapiens, UniProt P04150)

>  <Recorded result>
> 1 µM

$$$$

Problem: Find the recorded IC50 belonging to Cc1noc(=O)c2ccc(NC(=O)C(O)(CC3(C(C)(C)C)CCCc4ccccc43)C(F)(F)F)cc12 (centres undefined) and report it.
Result: > 10 µM

Problem: Also need Cc1noc(=O)c2ccc(NC(=O)C(O)(CC3(C)CCCc4ccccc43)C(F)(F)F)cc12 (stereo in doubt; 35c) , thanks.
Result: > 10 µM

The origin of these recorded values is ChEMBL document CHEMBL1138886.
